assay-text: inhibitors of HIV-1 Env-driven cell-cell fusion, primary screen, HeLa-JRFL effector, CEM21 target cells, luciferase (AID 651610);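 further: 0% = plate neutral controls and 100% = maraviroc near 300 nM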
experimental-parameters: at 16.7 µM unless noted
In all, about 360,000 compounds went through this assay and about 3,900 (1.1%) were called active.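 How the source made its calls: active means mean replicate inhibition score of at least 50 and every replicate individually at or above 50; inconclusive means only one of the two criteria met; inactive means mean below 50 and not all replicates reaching 50.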 The list comes from a sample in which actives are over-represented; it also holds close analogues and randomly drawn compounds.
Labels: active, inactive

> print(dat)
                                    compound  answer.label
 1  COC(C(=O)Nc1ccc(S(=O)(=O)Nc2ccc(C)c(C)c2)cc1)c1ccccc1 (stereo not drawn)      inactive
 2  COc1ccc(CCNC(=O)C2CCCN(Cc3nc(-c4cccc(Cl)c4)oc3C)C2)cc1OC (stereo not drawn)        active
 3  C[C@@H]1CCCCO[C@H](CN(C)C(=O)Nc2ccc(C(F)(F)F)cc2)[C@@H](C)CN([C@@H](C)CO)C(=O)c2cc(NS(=O)(=O)c3cccs3)ccc2O1      inactive
 4  CC(=O)Nc1ccc(NS(=O)(=O)c2ccc3c(c2)NC(=O)CC(=O)N3)cc1      inactive
 5  COc1ccc(CCNC(=O)CS(=O)(=O)Cc2nc(-c3ccc(C)cc3)oc2C)cc1OC      inactive
 6  COc1ccccc1C(=O)COC(=O)CNS(=O)(=O)c1ccc(NC(C)=O)cc1      inactive
 7  COc1ccc(NS(=O)(=O)c2ccc(NC(C)=O)cc2)cc1OC        active
 8  CC1(C)Cc2c(sc3nc(SCC(=O)NCc4ccccc4)n(-c4ccccc4)c(=O)c23)CS1        active
 9              Cc1ccc(-c2cn3cc(C)ccc3n2)cc1        active
10  O=C(NCC[C@H]1CC[C@@H](NC(=O)C2CCCCC2)[C@@H](CO)O1)c1ccc(F)cc1      inactive
11  CC(=O)Nc1ccc(S(=O)(=O)Nc2ccc(N3CCCCC3)cc2)cc1        active
12  CNC[C@H]1Oc2cc(-c3cccnc3)ccc2S(=O)(=O)N([C@@H](C)CO)C[C@H]1C      inactive
13  Cc1noc(C)c1S(=O)(=O)Nc1ccc2c(c1)C(=O)N([C@H](C)CO)C[C@@H](C)[C@@H](CN(C)C(=O)C1CCCCC1)OCCCC[C@@H](C)O2      inactive
14  C[C@@H]1CCCCO[C@@H](CN(C)Cc2ccc3c(c2)OCO3)[C@@H](C)CN([C@@H](C)CO)C(=O)c2cc(NC(=O)C3CCCCC3)ccc2O1      inactive
15  CCCN(C)C[C@H]1Oc2ncc(C#CC3CCCCC3)cc2C(=O)N([C@H](C)CO)C[C@@H]1C      inactive
16  CO[C@H]1CN(C)C(=O)c2cc(NC(=O)C3CCCC3)ccc2OC[C@@H](C)N(C(=O)CC2CC2)C[C@@H]1C      inactive
17  C[C@@H]1CN([C@@H](C)CO)C(=O)c2cc(NC(=O)C3CCCCC3)ccc2O[C@@H](C)CCCCO[C@H]1CN(C)C(=O)Nc1ccc2c(c1)OCO2      inactive
18      Cc1sc2nc(SCCO)n(-c3ccccc3)c(=O)c2c1C      inactive

----------
assay-text: inhibitors of HIV-1 Env-driven cell-cell fusion, primary screen, HeLa-JRFL effector, CEM21 target cells, luciferase (AID 651610);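 further: 0% = plate neutral controls and 100% = maraviroc near 300 nM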
experimental-parameters: at 16.7 µM unless noted
The campaign covered roughly 360,000 compounds. About 3,900 (1.1%) were called active.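 How the source made its calls: active means mean replicate inhibition score of at least 50 and every replicate individually at or above 50; inconclusive means only one of the two criteria met; inactive means mean below 50 and not all replicates reaching 50.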 Shown is part of a subset that was picked to be rich in actives.
Labels: true (1) for active, false (0) for inactive

> print(dat)
                                    compound  answer.label
 1  C[C@@H]1CN([C@@H](C)CO)C(=O)c2cc(-c3cncnc3)cnc2O[C@@H]1CN(C)Cc1ccncc1     false (0)
 2  CO[C@@H]1CN(C)C(=O)c2cc(NS(=O)(=O)c3ccccc3)ccc2OC[C@@H](C)N(C(=O)NC(C)C)C[C@@H]1C     false (0)
 3  CCCCCCCCN1C(=O)[C@@H](CC(=O)NCCCC)C[C@@]2(C(=O)OC)C1=C[C@H](C(C)(C)C)O[C@@H]2C     false (0)
 4  CN(C)CC(=O)Nc1ccc2c(c1)[C@H]1C[C@@H](CC(=O)NCc3ccc(-c4ccccc4)cc3)O[C@H](CO)[C@H]1O2     false (0)
 5  COc1ccc(S(=O)(=O)N(C)C[C@@H]2OCCCC[C@@H](C)Oc3ccc(NS(=O)(=O)c4ccccc4)cc3C(=O)N([C@@H](C)CO)C[C@H]2C)cc1     false (0)
 6  CC1CN(Cc2nc3c(c(=O)n(C)c(=O)n3C)n2Cc2cccc(Cl)c2)CC(C)O1 (configuration not stated)     false (0)
 7  CO[C@H]1CN(C)C(=O)c2cc(NS(=O)(=O)c3ccccc3)ccc2OC[C@H](C)N(C(=O)NC(C)C)C[C@@H]1C     false (0)
 8  C/C=C/c1ccc2c(c1)O[C@H](CN(C)C(=O)c1ccc3c(c1)OCO3)[C@@H](C)CN([C@H](C)CO)S2(=O)=O     false (0)
 9  COc1ccccc1S(=O)(=O)Nc1ccc2c(c1)C(=O)N(C)C[C@H](OC)[C@H](C)CN[C@H](C)CO2     false (0)
10  CCN(CC)CCCN=Cc1c(O)n(-c2ccc(C)cc2)c(=O)c2ccccc12     false (0)
11  CO[C@H]1CN(C)C(=O)c2cc(NS(=O)(=O)c3ccccc3)ccc2OC[C@H](C)N(C)C[C@@H]1C     false (0)
12  C[C@@H]1CN([C@H](C)CO)C(=O)c2cccc(NC(=O)Nc3cccc4ccccc34)c2O[C@@H]1CN(C)Cc1ccccc1     false (0)
13  CCCCNc1nc2c(c(=O)n(C)c(=O)n2C)n1Cc1cccc(OC)c1      true (1)
14  CCCCCCCCN1C(=O)[C@@H](CC(=O)NCc2ccccc2)C[C@@]2(C(=O)OC)C1=C[C@H](C(C)(C)C)O[C@@H]2C      true (1)
15  COc1cccc(-c2cnc3c(c2)C(=O)N([C@H](C)CO)C[C@H](C)[C@H](CN(C)C(=O)NC(C)C)O3)c1     false (0)
16  C[C@@H]1CN([C@@H](C)CO)C(=O)c2cccc(NS(=O)(=O)c3ccc(Cl)cc3)c2O[C@@H]1CN(C)Cc1ccccc1     false (0)
17  Cc1ccc(-n2c(O)c(C=Nc3ccc(S(=O)(=O)Nc4ncccn4)cc3)c3ccccc3c2=O)cc1C      true (1)
18  C[C@@H]1CN([C@H](C)CO)C(=O)c2cccc(NS(=O)(=O)c3ccc(Cl)cc3)c2O[C@H]1CN(C)Cc1ccc(C(F)(F)F)cc1     false (0)
19  Cc1nn(Cc2ccc(F)cc2)c(C)c1NC(=O)c1noc2c1CCc1ccccc1-2      true (1)
20  C[C@@H]1CN([C@@H](C)CO)S(=O)(=O)c2ccc(C#Cc3ccccc3F)cc2O[C@H]1CN(C)C(=O)c1ccc2c(c1)OCO2     false (0)
21  C[C@@H]1CN([C@H](C)CO)C(=O)Cc2cc(NC(=O)Cn3cnnn3)ccc2O[C@H]1CN(C)Cc1ccc(C(F)(F)F)cc1     false (0)
22  CCCCOCCCNC(=O)C[C@@H]1C[C@@]2(C(=O)OCC)CCCC=C2N(CCC2=CCCCC2)C1=O     false (0)
23  C=C1c2c(Cl)ccc(O)c2C(O)=C2C(=O)[C@]3(O)C(O)=C(C(N)=O)C(=O)[C@@H](N(C)C)[C@@H]3[C@@H](O)C12 (some centres not stated)     false (0)
24  COCC(=O)N1C[C@@H](C)[C@H](OC)CN(C)C(=O)c2ccc(NC(=O)c3ccc(F)cc3)cc2OC[C@H]1C     false (0)
25  Cc1nn(Cc2ccc(F)cc2)c(C)c1NC(=O)c1cccnc1Cl     false (0)
26  COc1cccc(S(=O)(=O)Nc2ccc3c(c2)C(=O)N(C)C[C@@H](OC)[C@@H](C)CN[C@@H](C)CO3)c1     false (0)
27  C[C@H](CO)N1C[C@H](C)[C@@H](CN(C)C(=O)Nc2ccc3c(c2)OCO3)Oc2ccc(NS(=O)(=O)c3ccc(Cl)cc3)cc2CC1=O     false (0)
